tested on: Human immunodeficiency virus 1; test: Antiviral activity against wild type HIV-1 NL4-3 infected in MT-2 cells assessed as inhibition of viral replication in presence of 10% of fetal bovine serum by luciferase reporter gene based multicycle replication assay; type: functional, organism-based; details: Human immunodeficiency virus 1, NL4-3, MT2
PROPERTY: pEC50
Reminder that pEC50 is minus the log10 of a molar concentration.

COMPOUND: C=C(C)[C@@H]1CC[C@]2(NCCN3CCS(=O)(=O)CC3)CC[C@]3(C)[C@H](CC[C@@H]4[C@@]5(C)C=CC(=C6CC7(C6)CC(C(=O)O)(C(=O)O)C7)C(C)(C)[C@@H]5CC[C@]43C)[C@@H]12
pEC50: 7.57

Form: Entry = C=C(C)[C@@H]1CC[C@]2(NCCN3CCS(=O)(=O)CC3)CC[C@]3(C)[C@H](CC[C@@H]4[C@@]5(C)CC=C(CC6CCC(C(=O)O)CC6)C(C)(C)[C@@H]5CC[C@]43C)[C@@H]12 (some centres undefined) | System = Human immunodeficiency virus 1 | pEC50 = ____
8.52

Form: Entry = C=C(C)[C@@H]1CC[C@]2(NCCN3CCS(=O)(=O)CC3)CC[C@]3(C)[C@H](CC[C@@H]4[C@@]5(C)CC=C(C6=CC7(C6)CC(C(=O)O)C7)C(C)(C)[C@@H]5CC[C@]43C)[C@@H]12 (some centres undefined) | System = Human immunodeficiency virus 1 | pEC50 = ____
8.82

Form: Entry = C=C(C)[C@@H]1CC[C@]2(NCCN3CCS(=O)(=O)CC3)CC[C@]3(C)[C@H](CC[C@@H]4[C@@]5(C)CC=C(C6=CC[C@@H](C(=O)O)CC6)C(C)(C)[C@@H]5CC[C@]43C)[C@@H]12 | System = Human immunodeficiency virus 1 | pEC50 = ____
9.05

Form: Entry = C=C(C)[C@@H]1CC[C@]2(NCCN3CCS(=O)(=O)CC3)CC[C@]3(C)[C@H](CC[C@@H]4[C@@]5(C)CC=C(CCCCC(=O)O)C(C)(C)[C@@H]5CC[C@]43C)[C@@H]12 | System = Human immunodeficiency virus 1 | pEC50 = ____
8.64

====

assay: Cytotoxicity against human MT2 cells; type: cell-based
PROPERTY: CC50 (µM)
Number in µM, nothing else.

MOLECULE: C=C(C)[C@@H]1CC[C@]2(NCCN3CCS(=O)(=O)CC3)CC[C@]3(C)[C@H](CC[C@@H]4[C@@]5(C)CC=C(C6=CC7(C6)CC(C(=O)O)C7)C(C)(C)[C@@H]5CC[C@]43C)[C@@H]12 (stereo partly specified)
CC50, µM: 11.9
//
MOLECULE: C=C(C)[C@@H]1CC[C@]2(NCCN3CCS(=O)(=O)CC3)CC[C@]3(C)[C@H](CC[C@@H]4[C@@]5(C)CC=C(CCC(C)(C)CC(=O)O)C(C)(C)[C@@H]5CC[C@]43C)[C@@H]12
CC50, µM: 12.3
//
MOLECULE: C=C(C)[C@@H]1CC[C@]2(C(=O)O)CC[C@]3(C)[C@H](CC[C@@H]4[C@@]5(C)CC=C(C6=CC7(C6)CC(C(=O)O)(C(=O)O)C7)C(C)(C)[C@@H]5CC[C@]43C)[C@@H]12
CC50, µM: 18.6
//
MOLECULE: C=C(C)[C@@H]1CC[C@]2(NCCN3CCS(=O)(=O)CC3)CC[C@]3(C)[C@H](CC[C@@H]4[C@@]5(C)CC=C(CC6CCC(C(=O)O)CC6)C(C)(C)[C@@H]5CC[C@]43C)[C@@H]12 (stereo partly specified)
CC50, µM: 13.5
//
MOLECULE: C=C(C)[C@@H]1CC[C@]2(NCCN3CCS(=O)(=O)CC3)CC[C@]3(C)[C@H](CC[C@@H]4[C@@]5(C)CC=C(C6=CC[C@H](C(=O)O)CC6)C(C)(C)[C@@H]5CC[C@]43C)[C@@H]12
CC50, µM: 4.1
//
MOLECULE: C=C(C)[C@@H]1CC[C@]2(NCCN3CCC(S(C)(=O)=O)CC3)CC[C@]3(C)[C@H](CC[C@@H]4[C@@]5(C)CC=C(C6=CC[C@@H](C(=O)O)CC6)C(C)(C)[C@@H]5CC[C@]43C)[C@@H]12
CC50, µM: 9
//
MOLECULE: C=C(C)[C@@H]1CC[C@]2(NCCN3CCS(=O)(=O)CC3)CC[C@]3(C)[C@H](CC[C@@H]4[C@@]5(C)CC=C(C6=CC[C@@H](C(=O)O)CC6)C(C)(C)[C@@H]5CC[C@]43C)[C@@H]12
CC50, µM: 12.2
//
MOLECULE: C=C(C)[C@@H]1CC[C@]2(NCCN3CCS(=O)(=O)CC3)CC[C@]3(C)[C@H](CC[C@@H]4[C@@]5(C)CC=C(CCCC(C)(C)C(=O)O)C(C)(C)[C@@H]5CC[C@]43C)[C@@H]12
CC50, µM: 8.2
//
MOLECULE: C=C(C)[C@@H]1CC[C@]2(NCCN3CCC(S(C)(=O)=O)CC3)CC[C@]3(C)[C@H](CC[C@@H]4[C@@]5(C)CC=C(C6=CC[C@H](C(=O)O)CC6)C(C)(C)[C@@H]5CC[C@]43C)[C@@H]12
CC50, µM: 9.1
//
MOLECULE: C=C(C)[C@@H]1CC[C@]2(NCCN3CCS(=O)(=O)CC3)CC[C@]3(C)[C@H](CC[C@@H]4[C@@]5(C)CC=C(CCCCC(=O)O)C(C)(C)[C@@H]5CC[C@]43C)[C@@H]12
CC50, µM: 10.2

What CC50 value was documented for this molecule, C=C(C)[C@@H]1CC[C@]2(NCCN3CCS(=O)(=O)CC3)CC[C@]3(C)[C@H](CC[C@@H]4[C@@]5(C)CC=C(C6=CCC(C(=O)O)(C(=O)O)CC6)C(C)(C)[C@@H]5CC[C@]43C)[C@@H]12 ?
13.2

What CC50 value was documented for this molecule, C=C(C)[C@@H]1CC[C@]2(NCCN3CCS(=O)(=O)CC3)CC[C@]3(C)[C@H](CC[C@@H]4[C@@]5(C)CC=C(C6=CCC(C(=O)O)CC6)C(C)(C)[C@@H]5CC[C@]43C)[C@@H]12 (stereo partly specified) ?
9.6

====

# key: entry, value: bioavailability
assay: Oral bioavailability in rat measured at 5 mg/kg up to 24 hrs; assay type: ADME, organism-based; details: in vivo
Number in %, nothing else.

COMPOUND: C=C(C)[C@@H]1CC[C@]2(NCCN3CCS(=O)(=O)CC3)CC[C@]3(C)[C@H](CC[C@@H]4[C@@]5(C)CC=C(C6=CC[C@@H](C(=O)O)CC6)C(C)(C)[C@@H]5CC[C@]43C)[C@@H]12
NUMERIC_VALUE: 58

Okay, now this compound:
What bioavailability value was documented for this compound, C=C(C)[C@@H]1CC[C@]2(NCCN3CCS(=O)(=O)CC3)CC[C@]3(C)[C@H](CC[C@@H]4[C@@]5(C)CC=C(C6=CC7(C6)CC(C(=O)O)C7)C(C)(C)[C@@H]5CC[C@]43C)[C@@H]12 (some centres not stated) ?
32

====

assay: AUC (0 to 24) in rat at 5 mg/kg, po measured after 24 hrs; format: ADME, organism-based; design: route oral, time 24 hrs, dose 5 mg/kg; details: in vivo
PROPERTY: AUC at 24 h

What AUC at 24 h value was documented for this compound, C=C(C)[C@@H]1CC[C@]2(C(=O)O)CC[C@]3(C)[C@H](CC[C@@H]4[C@@]5(C)CC=C(c6ccc(C(=O)O)cc6)C(C)(C)[C@@H]5CC[C@]43C)[C@@H]12 ?
5.7 µM·h

====

test: Tmax in rat at 5 mg/kg, po measured after 24 hrs; format: ADME, organism-based; details: in vivo
PROPERTY: Tmax (h)
Number in h, nothing else.

COMPOUND: C=C(C)[C@@H]1CC[C@]2(NCCN3CCS(=O)(=O)CC3)CC[C@]3(C)[C@H](CC[C@@H]4[C@@]5(C)CC=C(C6=CC7(C6)CC(C(=O)O)C7)C(C)(C)[C@@H]5CC[C@]43C)[C@@H]12 (stereo not given in full)
Tmax / h: 6.3

COMPOUND: C=C(C)[C@@H]1CC[C@]2(C(=O)O)CC[C@]3(C)[C@H](CC[C@@H]4[C@@]5(C)CC[C@H](OC(=O)CC(C)(C)C(=O)O)C(C)(C)[C@@H]5CC[C@]43C)[C@@H]12
Tmax / h: 1.8

COMPOUND: C=C(C)[C@@H]1CC[C@]2(NCCN3CCS(=O)(=O)CC3)CC[C@]3(C)[C@H](CC[C@@H]4[C@@]5(C)CC=C(C6=CC[C@@H](C(=O)O)CC6)C(C)(C)[C@@H]5CC[C@]43C)[C@@H]12
Tmax / h: 2.7

COMPOUND: C=C(C)[C@@H]1CC[C@]2(NCCN3CCS(=O)(=O)CC3)CC[C@]3(C)[C@H](CC[C@@H]4[C@@]5(C)CC=C(c6ccc(C(=O)O)cc6)C(C)(C)[C@@H]5CC[C@]43C)[C@@H]12
Tmax / h: 6

What Tmax value was documented for this compound, C=C(C)[C@@H]1CC[C@]2(C(=O)O)CC[C@]3(C)[C@H](CC[C@@H]4[C@@]5(C)CC=C(c6ccc(C(=O)O)cc6)C(C)(C)[C@@H]5CC[C@]43C)[C@@H]12 ?
4
